// data source = the RNAGym collection of RNA variant scans (doi:10.7554/elife.80360)

B1: Hairpin Ribozyme (parent)
chain: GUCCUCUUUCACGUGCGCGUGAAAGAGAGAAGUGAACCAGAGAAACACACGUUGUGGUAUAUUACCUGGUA

variants of: B1; assay: self-cleavage, relative activity (ratio to wild type); higher = more cleavage; co-transcriptional
value.kind: self-cleavage
Note: the reply should be a number with no unit written.

Use the examples below as a reference point.
> print(dat)
   mutation.id  endpoint.result
1    G34U G57A            0.887
2    G15U U53A             1.16
3    A11G A45C            0.124
4    G54A U55C            0.502

# input What value of self-cleavage has been reported for the following variant? G1A A71U
# output 0.196

# input // repeat for A43C A47U and report
# output 0.24

# input // repeat for G17A C48G and report
# output 0.102

# input // repeat for C10G A28C and report
# output 0.306

# input // repeat for "C12G" and report
# output 0.827

# input // repeat for G19U U33A and report
# output 0.237

# input // repeat for C12A G25U and report
# output 0.559

# input // repeat for U33G A59C and report
# output 0.139

# input // repeat for A26U U53C and report
# output 0.599

# input // repeat for G21U C37A and report
# output 0.267

# input // repeat for G25A A39U and report
# output 0.285

# input // repeat for G32U A61G and report
# output 0.0951

# input // repeat for G56A C65U and report
# output 0.104

# input // repeat for A11C G51U and report
# output 1.13

# input // repeat for U9G G57C and report
# output 0.232
